Numbers sourced from PubChem BioAssay (NCI).

System: PC-3 prostate
experimentDescription: NCI tumour cell line growth inhibition, 48 h
# binarize TGI: threshold 30 µM inclusive, high side 1 (yes), low side 0 (no)

Evaluate NS(=O)(=O)c1ccc(NC(=O)Nc2cccc3ccccc23)cc1 : TGI at minimum 30 µM?
1 (yes)

Exam item: decide whether the reported TGI for Clc1ccc(CCNCCNC2(c3cc4ccccc4s3)CCCCC2)cc1Cl is at least 30 µM.
0 (no)

Does the reported TGI for Nc1ccc(Oc2ccc(C34CC5CC(C3)CC(c3ccc(Oc6ccc(N)c(O)c6)cc3)(C5)C4)cc2)cc1O fall at or above the 30 µM mark?
0 (no)

Given Nc1[nH]c(=S)[nH]c(=O)c1N=Nc1c(Br)cc(S(N)(=O)=O)cc1Br , state whether its TGI is at least 30 µM.
1 (yes)

Exam item: decide whether the reported TGI for O=C(O)[C@@H](Cc1ccccc1)NS(=O)(=O)c1ccc(-c2ccccc2)cc1 is at least 30 µM.
1 (yes)

Hi, just wondering whether C=c1c2ccccc2oc2nc3[nH]c(N)c(C#N)c(N)c3c(=N)c12 shows TGI of 30 µM or higher.
1 (yes)

Record OCC1OC(n2cnc3cc(Cl)c(Cl)cc32)C(O)C1O (stereo not given) ; criterion: TGI no lower than 30 µM. Met?
1 (yes)
